Provenance of the data: ChEMBL document CHEMBL5357036

Tested on: MDA-MB-231
Protocol Details: Antiproliferative activity against human MDA-MB-231 cells assessed as cell growth inhibition measured after 48 hrs by MTT assay
Assay type: functional, cell-based
Assay Context: MDA-MB-231, 48 h
Readout Name: pIC50
Give bare numbers, as −log10 of the molar value.

Request the reported pIC50 associated with `COc1ccc2nc3ccccc3c(Nc3csc(-c4cc5ccccc5oc4=O)n3)c2c1`
5.10

====

System: HepG2
Protocol Details: Cytotoxicity against human HepG2 cells assessed as cell growth inhibition measured after 48 hrs by MTT assay
Type: functional, cell-based
Assay Context: HepG2, 48 h
Readout Name: IC50 (µM)
Answers are plain numbers, in µM.

{"columns": ["Structure Notation", "Meas Value"],
 "data": [
  ["Cc1cc(-c2cc3ccccc3oc2=O)n(-c2nc(-c3ccc(Cl)cc3)cs2)n1", 3.74]
]}

# value lookup — system HepG2, readout IC50, item `Cc1cc(-c2cc3cc(Cl)ccc3oc2=O)n(-c2nc(-c3ccc(Cl)cc3)cs2)n1`
3.06

====

System: OVCAR-3
Protocol Details: Antiproliferative activity against human OVCAR-3 cells assessed as cell viability measured after 72 hrs incubation by MTT assay
Format: functional, cell-based
Assay Context: OVCAR-3, 72 h
Readout Name: pIC50
One number for each entry, as −log10 of the molar value.

Request the reported pIC50 associated with `CCN(CC)c1ccc2cc(C(=O)N3CCN(CCC[C@H]4O[C@@H]5O[C@@]6(C)CC[C@H]7[C@H](C)CC[C@@H]([C@H]4C)[C@@]57OO6)CC3)c(=O)oc2c1`
5.34

====

Tested on: MDA-MB-231
Protocol Details: Antiproliferative activity against human MDA-MB-231 cells assessed as reduction in cell viability measured after 72 hrs under normoxia condition by MTT assay
Assay Context: MDA-MB-231, 72 h
Readout Name: IC50 (µM)
One number for each entry, in µM.

Request the reported IC50 associated with `COc1cccc2c1C(=O)c1c(O)c3c(c(O)c1C2=O)C[C@@](O)(C(=O)CO)C[C@@H]3O[C@H]1C[C@H](N)[C@H](O)[C@H](C)O1`
1.07

====

Test system: DLD-1
Protocol Details: Anticancer activity against human DLD-1 cells assessed as reduction in cell viability
Assay type: functional, cell-based
Readout Name: pEC50
One number for each entry, as −log10 of the molar value.

Request the reported pEC50 associated with `COc1ccc(/C(C)=N/Nc2ncc(C(=O)c3cc4ccccc4oc3=O)s2)cc1`
5.24

====

Protocol Details: Oral bioavailability in Sprague-Dawley rat at 10 mg/kg measured up to 24 hrs by LC-MS/MS analysis
Type: ADME, organism-based
Assay Context: in vivo
Readout Name: bioavailability
Number plus unit, in that order.

Request the reported bioavailability associated with `COc1cc(Cl)ccc1S(=O)(=O)Nc1ccc2oc(=O)ccc2c1`
49.4%

====

Tested on: MCF7
Protocol Details: Antiproliferative activity against human MCF7 cells assessed as reduction in cell viability incubated for 48 hrs by cell titer-glo assay
Type: functional, cell-based
Assay Context: MCF7, 48 h
Readout Name: IC50 (µM)
Numbers only, in µM.

Request the reported IC50 associated with `CCN(C)S(=O)(=O)c1ccc(/C(C)=N/NC(=O)c2cc3ccccc3oc2=O)cc1`
2.56

====

Tested on: K562
Protocol Details: Antiproliferative activity against human K562 cells assessed as cell growth inhibition
Assay type: functional, cell-based
Readout Name: pIC50
Answers are plain numbers, as −log10 of the molar value.

Request the reported pIC50 associated with `O=C(N/N=C/c1c(Cl)c2ccccc2oc1=O)c1ccccc1`
5.14
